Value source: patent US20030199671A1

Below, each of the binders is paired with its reported Kd value.
target: T1, human IgG1 (human, UniProt P01857-1 1-330 = IgG part); assay: fluorescence anisotropy; pH 7.4, 0.01 M Tris-HCl
T1 construct: Calbiochem; human plasma IgG1 in anisotropy studies, myeloma-derived (cat. 400120) in batch/column studies; also called hIgG1
T1 sequence (P01857 other isoform, or with tags, fused parts or gaps): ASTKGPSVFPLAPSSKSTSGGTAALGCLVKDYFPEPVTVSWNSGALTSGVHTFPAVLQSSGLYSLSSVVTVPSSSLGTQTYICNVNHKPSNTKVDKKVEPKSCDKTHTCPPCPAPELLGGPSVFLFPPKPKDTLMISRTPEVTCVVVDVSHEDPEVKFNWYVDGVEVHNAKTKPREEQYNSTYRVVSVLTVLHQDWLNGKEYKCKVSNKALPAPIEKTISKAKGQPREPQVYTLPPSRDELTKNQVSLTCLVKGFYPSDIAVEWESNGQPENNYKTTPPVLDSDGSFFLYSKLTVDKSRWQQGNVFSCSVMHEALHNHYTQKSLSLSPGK
Positions of bridges follow the written chain, without caps; N, C: chain ends.
Respond with the bare value in nM.

Returns the measured Kd for the input binder. Input: Ac-GDDDHCYWFREWFNSECPHGEPGPEGGGK-NH2 (not fully specified (bridges); printed as Ac-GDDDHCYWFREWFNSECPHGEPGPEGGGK-NH2; cysteine pairing not given here; also: fluorescein-labelled form in anisotropy assays, place not given here, Fluorescein-labelled in anisotropy assays; immobilised in batch/column assays) [DX252] 2100

Turning now to a further binder:
Could you share which Kd value was measured for Ac-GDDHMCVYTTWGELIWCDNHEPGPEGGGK-NH2 (disulfide 6-17 (inferred), Synthetic disulfide-cyclised peptide) [DX249] ? 400
